Molecular target: CD3 epsilon/delta heterodimer (Homo sapiens, UniProt P07766;P04234 P07766:23-126,P04234:22-105)
Sequence (P07766 23-126, stated change not applied, chain 1 of 2): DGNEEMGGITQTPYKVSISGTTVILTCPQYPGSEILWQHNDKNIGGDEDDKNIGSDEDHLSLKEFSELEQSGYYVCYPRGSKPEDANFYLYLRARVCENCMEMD
Sequence (P04234 22-105, stated change not applied, chain 2 of 2): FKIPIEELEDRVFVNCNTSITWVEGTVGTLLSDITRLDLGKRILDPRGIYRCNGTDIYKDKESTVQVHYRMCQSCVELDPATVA
Test: SPR; steady state; 62.2 nM (Table 3); kinetic 3.4 nM (Table 6)
Conditions: tags: C-terminal human IgG1 Fc fusion, AcroBiosystems; chain copies: heterodimer 1:1 (inferred); label: 5'-biotin-TEG
property.measured: Kd (nM)
All answers are understood in nM, so give the number only.

Please report the recorded Kd for CELTIC_21 (ssDNA) DNA: TAGGGAAGAGAAGGACATATGATGGTCGGGTGCTACTGAGCGATTGGCTTTCCGGACTGGGGATTGACTAGTACATGACCACTTGA . 49.8
